# Procedure Summary: Cytotoxicity, MTT assay, IAFp2
# Type: cell-based
# Experimental Parameters: human, IAFp2 fibroblast cell line, read-out: IAFp2 Cytotox (IC50)
# Source text: […]

Compound	IC50
CC(=O)N[C@H]1CSSC[C@@H](C(N)=O)NC(=O)[C@H](C(C)C)NC(=O)[C@H](C)NC(=O)[C@H](Cc2c[nH]cn2)NC1=O [N—Ac—CHAVC—NH2, N-Ac-Cys-His-Ala-Val-Cys-NH2]	> 100 µM

* * *

# Procedure Summary: Cytotoxicity, MTT assay, WI-38
# Assay type: cell-based
# Experimental Parameters: human, WI-38 cells (human fibroblast cell line), read-out: WI-38 Cytotox (IC50)

Compound	IC50
CC(=O)N[C@H]1CSSC[C@@H](C(N)=O)NC(=O)[C@H](C(C)C)NC(=O)CNC(=O)[C@H](Cc2c[nH]cn2)NC1=O [N—Ac—CHGVC—NH2, reference compound]	> 100 µM

* * *

IC50 listing for selected compounds.
# Tested on: IAFp2
# Format: cell-based, human
# Experimental Parameters: 3 h
Positions of bridges follow the written chain, without caps; N, C: chain ends. Residues, ends and D or L forms follow the SMILES beside them.
Measured Property: IC50

Compound	Study Target	Measured Property	Observed Result
CC[C@H](C)[C@@H]1NC(=O)[C@H](CC(=O)O)NC(=O)[C@H](C(C)C)NC(=O)CNC(=O)[C@H](Cc2c[nH]cn2)NC(=O)[C@H](C)NC(=O)[C@@H](NC(C)=O)CSSC[C@@H](C(N)=O)NC1=O (Ac-CAHGVDIC-NH2; disulfide 1-8)	IAFp2	IC50	> 100 µM
CC(=O)N[C@H]1CSSC[C@@H](C(N)=O)NC(=O)[C@H](CO)NC(=O)[C@H](CO)NC(=O)[C@H](C(C)C)NC(=O)CNC(=O)[C@H](Cc2c[nH]cn2)NC(=O)[C@H](CO)NC1=O (Ac-CSHGVSSC-NH2; disulfide 1-8)	IAFp2	IC50	> 100 µM

* * *

pIC50 listing for selected molecules.
# Tested on: MDA-MB231
# Type: cell-based, human
# Experimental Parameters: 3 h
# Text: […]
pIC50: −log10 of the molar value. Positions of bridges follow the written chain, without caps; N, C: chain ends. Residues, ends and D or L forms follow the SMILES beside them.

Molecule	pIC50
CC(C)[C@@H]1NC(=O)[C@H](C)NC(=O)[C@H](Cc2c[nH]cn2)NC(=O)[C@H](C)NC(=O)[C@@H](N)CSSC[C@@H](C(N)=O)NC(=O)[C@H](CC(=O)O)NC1=O [H—CAHAVDC—NH2, H-Cys-Ala-His-Ala-Val-Asp-Cys-NH2] (H-CAHAVDC-NH2; disulfide 1-7)	< 4.00
CC(=O)N[C@H]1CSSC[C@@H](C(N)=O)NC(=O)[C@H](C(C)C)NC(=O)CNC(=O)[C@H](Cc2c[nH]cn2)NC(=O)[C@H](CO)NC1=O [N—Ac—CSHGVC—NH2] (Ac-CSHGVC-NH2; disulfide 1-6)	< 4.00

* * *

# Study Target: UniProt P32004
# Sequence (P32004 20-1257): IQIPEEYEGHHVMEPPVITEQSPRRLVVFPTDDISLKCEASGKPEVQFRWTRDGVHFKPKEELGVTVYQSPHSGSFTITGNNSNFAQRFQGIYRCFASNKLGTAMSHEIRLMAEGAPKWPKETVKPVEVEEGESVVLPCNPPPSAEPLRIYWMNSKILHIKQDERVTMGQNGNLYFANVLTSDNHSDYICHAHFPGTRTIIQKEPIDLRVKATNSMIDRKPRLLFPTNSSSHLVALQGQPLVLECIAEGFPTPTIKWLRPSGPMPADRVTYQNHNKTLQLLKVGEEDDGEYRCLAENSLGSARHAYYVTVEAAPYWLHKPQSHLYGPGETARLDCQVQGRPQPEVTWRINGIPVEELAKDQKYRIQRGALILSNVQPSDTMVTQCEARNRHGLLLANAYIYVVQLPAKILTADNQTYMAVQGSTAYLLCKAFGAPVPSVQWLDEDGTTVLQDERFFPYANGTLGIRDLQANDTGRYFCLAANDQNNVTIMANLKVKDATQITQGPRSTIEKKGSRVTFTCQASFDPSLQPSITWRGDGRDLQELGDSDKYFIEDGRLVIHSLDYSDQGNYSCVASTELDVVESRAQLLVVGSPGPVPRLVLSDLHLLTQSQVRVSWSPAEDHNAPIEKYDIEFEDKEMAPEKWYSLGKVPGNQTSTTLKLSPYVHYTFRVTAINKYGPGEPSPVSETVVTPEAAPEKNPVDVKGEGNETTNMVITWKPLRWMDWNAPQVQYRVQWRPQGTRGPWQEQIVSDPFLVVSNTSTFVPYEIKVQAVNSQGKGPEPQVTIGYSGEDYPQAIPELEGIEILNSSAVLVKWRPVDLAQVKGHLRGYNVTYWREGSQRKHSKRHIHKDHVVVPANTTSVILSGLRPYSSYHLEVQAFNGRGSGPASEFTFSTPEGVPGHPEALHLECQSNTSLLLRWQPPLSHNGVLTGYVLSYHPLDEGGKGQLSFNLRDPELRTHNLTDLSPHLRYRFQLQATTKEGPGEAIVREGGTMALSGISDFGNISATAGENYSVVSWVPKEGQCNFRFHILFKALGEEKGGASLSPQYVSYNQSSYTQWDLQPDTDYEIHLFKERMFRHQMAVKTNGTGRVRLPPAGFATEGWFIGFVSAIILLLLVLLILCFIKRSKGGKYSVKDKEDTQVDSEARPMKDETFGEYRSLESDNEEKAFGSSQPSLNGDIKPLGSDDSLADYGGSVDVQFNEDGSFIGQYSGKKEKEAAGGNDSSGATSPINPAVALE
# Procedure Summary: Neurite outgrowth of rat cerebellar neurons on L1 expressing 3T3 monolayers (Example 15)
# Type: cell-based
# Parameters: expressed in transfected cells; rat cerebellar neurons on top
# Experimental Parameters: 125 μg/ml; read-out: % Inhibition of L1 Response
Positions of bridges follow the written chain, without caps; N, C: chain ends. Residues, ends and D or L forms follow the SMILES beside them.
inhibition at 125 µg/mL listing for selected compounds.
Measured Property: inhibition at 125 µg/mL (%)

Compound	Quantity Unit	Observed Result
CC(=O)N[C@H]1CSSC[C@@H](C(N)=O)NC(=O)[C@H](CC(=O)O)NC(=O)[C@H](C(C)C)NC(=O)[C@H](C)NC(=O)[C@H](Cc2c[nH]cn2)NC1=O [N—Ac—CHAVDC—NH2] (Ac-CHAVDC-NH2; disulfide 1-6)	%	9.6
CC[C@H](C)[C@@H]1NC(=O)[C@H](CC(=O)O)NC(=O)[C@H](C(C)C)NC(=O)[C@H](C)NC(=O)[C@H](Cc2c[nH]cn2)NC(=O)[C@@H](NC(C)=O)CSSC[C@@H](C(N)=O)NC1=O [N—Ac—CHAVDIC—NH2] (Ac-CHAVDIC-NH2; disulfide 1-7)	%	6
CC(=O)N[C@H]1CSSC[C@@H](C(N)=O)NC(=O)[C@H](C(C)C)NC(=O)[C@H](C)NC(=O)[C@H](Cc2c[nH]cn2)NC1=O	%	41.6
CC[C@H](C)[C@@H]1NC(=O)[C@H](CC(=O)O)NC(=O)[C@H](C(C)C)NC(=O)[C@H](C)NC(=O)[C@H](Cc2c[nH]cn2)NC(=O)[C@@H](NC(C)=O)CSSC[C@@H](C(N)=O)NC(=O)[C@H](CC(N)=O)NC1=O (Ac-CHAVDINC-NH2; disulfide 1-8)	%	1.7
